Data origin: patent US20170137511A1

- TARGET OF ASSAY: recombinant human IL-15 (Prospec cat no. CYT230) (human, UniProt P40933 49-162)
- Sequence (P40933 other isoform, or with tags, fused parts or gaps): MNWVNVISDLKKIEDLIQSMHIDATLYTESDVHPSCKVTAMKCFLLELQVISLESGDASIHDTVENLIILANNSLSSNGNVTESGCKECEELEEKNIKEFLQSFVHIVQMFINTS
- ASSAY TEXT: ELISA, plate-bound human IL-15; printed as BC50 (half-maximal binding concentration)
Documented EC50 across a set of binders
Report the value in nM with no unit label.

{"columns": ["BINDER", "NUMERIC VALUE"],
 "data": [
  ["huB-E29-24 (antibody, human IgG1, kappa, V domains shown, Humanized B-E29 variant; human IgG1 (G1m3) / kappa (Km3), produced in CHO cells; also called huVH18/huVL1) VH: EVQLVESGGGLVQPGGSLRLSCAASEFTFSNYAMSWVRQAPGKGLEWVATISRGGDYTYYPDSVKGRFTISRDNSKNTLYLQMNSLRAEDTAVYYCARRVSMITGGYAMDYWGQGTLVTVSS VL: DVVMTQSPLSLPVTLGQPASISCRSSQSIVDITGNTYLEWYQQRPGQSPRLLIYKVFNRFSGVPDRFSGSGSGTDFTLKISRVEAEDVGVYYCFQDSFVPYTFGQGTKLEIKR", 0.647]
]}

# input EC50 for huB-E29-15 (antibody, human IgG1, kappa, V domains shown, Humanized B-E29 variant; human IgG1 (G1m3) / kappa (Km3), produced in CHO cells; also called huVH13/huVL1) VH: EVRLMASGGGLVQPGGSLRLSCAASEFTFSNYAMSWVRQAPGKGLEWVATISRGGDYTYYPDSVKGRFTISRDNSKNTLYLQMNSLRAEDTAVYYCARRVSMITGGWAIDYWGQGTLVTVSS VL: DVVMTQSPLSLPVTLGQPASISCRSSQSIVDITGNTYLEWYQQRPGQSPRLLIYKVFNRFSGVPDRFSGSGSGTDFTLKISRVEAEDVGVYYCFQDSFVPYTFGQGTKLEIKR ?
# output 2.53
